B1: library; a variant is named by its letters at N, in order (parent)
chain: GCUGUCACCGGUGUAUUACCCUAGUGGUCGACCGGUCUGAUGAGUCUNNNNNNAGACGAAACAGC

Variants of: B1
Experiment: normalized RNA/DNA level with ligand (relative to sTRSVctl = 100) (log10 (% of sTRSVctl)); ligand: hypoxanthine (xanthine aptamer); higher = less ribozyme self-cleavage, higher mRNA level
Conditions: ligand concentration (+) RNA-Seq: 5 mM, HEK293T, reporter: mCherry (pCS4076), ligand present: yes
Catalogue of normalized RNA/DNA level with ligand (log10) readings, one per entry.
API note: the answer field is a bare number with no unit suffix.

# Residue string, Test result
rows = [
    ("GCUGUCACCGGUGUAUUACCCUAGUGGUCGACCGGUCUGAUGAGUCUAACCUUAGACGAAACAGC [AACCUU]", 1.9),
]

input: Give the measured normalized RNA/DNA level with ligand (log10) of GCUGUCACCGGUGUAUUACCCUAGUGGUCGACCGGUCUGAUGAGUCUCUGCCUAGACGAAACAGC [CUGCCU] .
output: 1.95

input: Give the measured normalized RNA/DNA level with ligand (log10) of GCUGUCACCGGUGUAUUACCCUAGUGGUCGACCGGUCUGAUGAGUCUAACAACAGACGAAACAGC [AACAAC] .
output: 1.9

# credit: the supplement of paper PMC6757056
